- experimental.target: DNA topoisomerase 1 (Homo sapiens) (UniProt P11387)
- Sequence (P11387 whole entry): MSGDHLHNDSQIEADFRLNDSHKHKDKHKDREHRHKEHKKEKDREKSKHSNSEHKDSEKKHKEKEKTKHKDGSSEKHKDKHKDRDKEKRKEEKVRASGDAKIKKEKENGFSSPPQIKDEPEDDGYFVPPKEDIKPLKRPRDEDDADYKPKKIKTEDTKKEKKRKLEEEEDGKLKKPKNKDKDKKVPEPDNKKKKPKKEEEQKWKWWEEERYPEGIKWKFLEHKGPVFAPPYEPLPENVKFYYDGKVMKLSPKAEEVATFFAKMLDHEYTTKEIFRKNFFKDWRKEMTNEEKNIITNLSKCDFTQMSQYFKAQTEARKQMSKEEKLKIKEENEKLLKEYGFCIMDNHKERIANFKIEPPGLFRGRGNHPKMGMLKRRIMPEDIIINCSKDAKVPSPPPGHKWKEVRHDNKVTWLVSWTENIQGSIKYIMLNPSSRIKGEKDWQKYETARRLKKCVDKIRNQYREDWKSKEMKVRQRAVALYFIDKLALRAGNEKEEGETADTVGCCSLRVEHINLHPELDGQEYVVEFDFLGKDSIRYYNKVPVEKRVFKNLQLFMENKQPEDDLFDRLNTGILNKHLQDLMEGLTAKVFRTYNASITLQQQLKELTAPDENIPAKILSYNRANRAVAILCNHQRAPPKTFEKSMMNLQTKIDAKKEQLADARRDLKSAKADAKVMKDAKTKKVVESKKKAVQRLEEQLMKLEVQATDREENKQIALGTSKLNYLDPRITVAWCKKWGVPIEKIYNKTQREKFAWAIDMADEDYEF
- protocol.notes: Inhibition of recombinant human topoisomerase 1 assessed as decrease in relaxation of supercoiled pBR322 DNA after 60 mins by ethidium bromide staining based agarose gel electrophoresis method
endpoint.name: inhibition

Solved cases below.
>>> test_result("COc1cc2c3sc4cc(Cl)ccc4c(=O)c3n(CCN(C)C)c2cc1OC")
"Dose-dependent effect"
>>> test_result("CCN(CC)CCn1c2cc(OC)c(OC)cc2c2sc3ccccc3c(=O)c21")
"Dose-dependent effect"
>>> test_result("COc1cc2c3sc4ncccc4c(=O)c3n(CCN(C)C)c2cc1OC")
"Dose-dependent effect"
>>> test_result("CCN(CC)CCn1c2ccc(OC)cc2c2sc3cc(Cl)ccc3c(=O)c21")
"Dose-dependent effect"
>>> test_result("COc1ccc2c(=O)c3c(sc2c1)c1cc(OC)c(OC)cc1n3CCN(C)C")
"Dose-dependent effect"
>>> test_result("CCN(CC)CCn1c2ccc(OC)cc2c2sc3ccccc3c(=O)c21")
"Dose-dependent effect"
>>> test_result("CN(C)CCn1c2ccccc2c2sc3ncccc3c(=O)c21")
"Dose-dependent effect"
>>> test_result("CN(C)CCn1c2ccc(Cl)cc2c2sc3cc(Cl)ccc3c(=O)c21")
"Dose-dependent effect"

Lab note: compound CCN(CC)CCn1c2ccc(OC)cc2c2sc3ncccc3c(=O)c21 tested on DNA topoisomerase 1 (Homo sapiens) (UniProt P11387); recorded inhibition was Dose-dependent effect

Lab note: compound COc1cc2c3sc4ccccc4c(=O)c3n(CCN(C)C)c2cc1OC tested on DNA topoisomerase 1 (Homo sapiens) (UniProt P11387); recorded inhibition was Dose-dependent effect

Lab note: compound CCN(CC)CCn1c2ccccc2c2sc3ncccc3c(=O)c21 tested on DNA topoisomerase 1 (Homo sapiens) (UniProt P11387); recorded inhibition was Dose-dependent effect

Sourced from ChEMBL document CHEMBL4400511
